target: GABA-A receptor; anion channel; assay: Increase in [3H]flunitrazepam binding to GABA-A receptor in mouse embryo cortical neurons; type: protein-complex assay
Entries and their Log EC50 values follow.

[
  {
    "MOL": "CC(=O)[C@H]1CC[C@H]2[C@@H]3C[C@H]4C[C@H](O)CC[C@]4(C)[C@H]3CC[C@]12C",
    "Log EC50": -6.61
  },
  {
    "MOL": "CC(=O)[C@H]1CC[C@H]2[C@@H]3C[C@@H]4C[C@H](O)CC[C@]4(C)[C@H]3CC[C@]12C",
    "Log EC50": -6.03
  },
  {
    "MOL": "CC(=O)[C@H]1CC[C@H]2[C@@H]3CC[C@@H]4C[C@H](O)CC[C@]4(C)[C@H]3CC[C@]12C",
    "Log EC50": -5.93
  },
  {
    "MOL": "CC(=O)[C@H]1CC[C@H]2[C@@H]3CC[C@H]4C[C@H](O)CC[C@]4(C)[C@H]3CC[C@]12C",
    "Log EC50": -6.06
  }
]

###

Entries and their Activity values follow.
molecular target: GABA-A receptor; anion channel (Mus musculus) (UniProt Q8BHJ7+P26048+Q8QZW7+P50571+Q9R0Y8+P22723+A2AMW3+P62812+Q9JLF1+P26049+P22933+Q9D6F4+P63080+P27681+P16305); test: Effect on GABA-A-induced 36chloride ion influx in mouse embryo cortical neurons at 10 uM relative to basal value; assay type: functional

[
  {
    "MOL": "CC(=O)[C@H]1CC[C@H]2[C@@H]3[C@@H]4O[C@@]45C[C@H](O)CC[C@]5(C)[C@H]3CC[C@]12C",
    "UNIT ABBREV": "%",
    "Activity": 103
  },
  {
    "MOL": "CC(=O)[C@H]1CC[C@H]2[C@H]3C(=C4CC[C@@H](O)C[C@@]4(C)[C@H]3O)CC[C@]12C",
    "UNIT ABBREV": "%",
    "Activity": 76
  },
  {
    "MOL": "CC(=O)[C@H]1CC[C@H]2[C@@H]3CC[C@@H]4C[C@H](O)CC[C@]4(C)[C@H]3CC[C@]12C",
    "UNIT ABBREV": "%",
    "Activity": 162
  },
  {
    "MOL": "CC(=O)[C@H]1CC[C@H]2[C@@H]3[C@H]4O[C@]45C[C@H](O)CC[C@]5(C)[C@H]3CC[C@]12C",
    "UNIT ABBREV": "%",
    "Activity": 104
  },
  {
    "MOL": "CC(=O)[C@H]1CC[C@H]2[C@@H]3[C@H]4O[C@]45C[C@@H](O)CC[C@]5(C)[C@H]3CC[C@]12C",
    "UNIT ABBREV": "%",
    "Activity": 99
  },
  {
    "MOL": "CC(=O)[C@H]1CC[C@H]2[C@@H]3CN[C@H]4C[C@H](O)CC[C@]4(C)[C@H]3CC[C@]12C",
    "UNIT ABBREV": "%",
    "Activity": 86
  },
  {
    "MOL": "CC(=O)[C@H]1CC[C@H]2[C@@H]3CC[C@H]4C[C@H](O)CC[C@]4(C)[C@H]3CC[C@]12C",
    "UNIT ABBREV": "%",
    "Activity": 164
  },
  {
    "MOL": "CC(=O)[C@H]1CC[C@H]2[C@@H]3C(=O)C[C@H]4C[C@H](O)CC[C@]4(C)[C@H]3CC[C@]12C",
    "UNIT ABBREV": "%",
    "Activity": 90
  },
  {
    "MOL": "CC(=O)[C@H]1CC[C@H]2[C@@H]3C(=O)[C@H]4C[C@H](O)CC[C@]4(C)[C@H]3CC[C@]12C",
    "UNIT ABBREV": "%",
    "Activity": 82
  },
  {
    "MOL": "CC(=O)[C@H]1CC[C@H]2[C@@H]3CC(=O)[C@H]4C[C@H](O)CC[C@]4(C)[C@H]3CC[C@]12C",
    "UNIT ABBREV": "%",
    "Activity": 100
  },
  {
    "MOL": "CC(=O)[C@H]1CC[C@H]2[C@@H]3CC=C4C[C@H](O)CC[C@]4(C)[C@H]3CC[C@]12C",
    "UNIT ABBREV": "%",
    "Activity": 131
  },
  {
    "MOL": "CC(=O)[C@H]1CC[C@H]2[C@@H]3C[C@H]4C[C@H](O)CC[C@]4(C)[C@H]3CC[C@]12C",
    "UNIT ABBREV": "%",
    "Activity": 199
  },
  {
    "MOL": "CC(=O)[C@H]1CC[C@H]2[C@@H]3C[C@@H]4C[C@H](O)CC[C@]4(C)[C@H]3CC[C@]12C",
    "UNIT ABBREV": "%",
    "Activity": 172
  },
  {
    "MOL": "CC(=O)[C@H]1CC[C@H]2[C@@H]3C(=O)N[C@H]4C[C@H](O)CC[C@]4(C)[C@H]3CC[C@]12C",
    "UNIT ABBREV": "%",
    "Activity": 81
  }
]

Values compiled from ChEMBL document CHEMBL1147826.
